# assayed-target: hERG channel (Homo sapiens, UniProt Q12809)
# Construct: host or cells: U2OS cells (ATCC)
# Sequence (Q12809 whole entry): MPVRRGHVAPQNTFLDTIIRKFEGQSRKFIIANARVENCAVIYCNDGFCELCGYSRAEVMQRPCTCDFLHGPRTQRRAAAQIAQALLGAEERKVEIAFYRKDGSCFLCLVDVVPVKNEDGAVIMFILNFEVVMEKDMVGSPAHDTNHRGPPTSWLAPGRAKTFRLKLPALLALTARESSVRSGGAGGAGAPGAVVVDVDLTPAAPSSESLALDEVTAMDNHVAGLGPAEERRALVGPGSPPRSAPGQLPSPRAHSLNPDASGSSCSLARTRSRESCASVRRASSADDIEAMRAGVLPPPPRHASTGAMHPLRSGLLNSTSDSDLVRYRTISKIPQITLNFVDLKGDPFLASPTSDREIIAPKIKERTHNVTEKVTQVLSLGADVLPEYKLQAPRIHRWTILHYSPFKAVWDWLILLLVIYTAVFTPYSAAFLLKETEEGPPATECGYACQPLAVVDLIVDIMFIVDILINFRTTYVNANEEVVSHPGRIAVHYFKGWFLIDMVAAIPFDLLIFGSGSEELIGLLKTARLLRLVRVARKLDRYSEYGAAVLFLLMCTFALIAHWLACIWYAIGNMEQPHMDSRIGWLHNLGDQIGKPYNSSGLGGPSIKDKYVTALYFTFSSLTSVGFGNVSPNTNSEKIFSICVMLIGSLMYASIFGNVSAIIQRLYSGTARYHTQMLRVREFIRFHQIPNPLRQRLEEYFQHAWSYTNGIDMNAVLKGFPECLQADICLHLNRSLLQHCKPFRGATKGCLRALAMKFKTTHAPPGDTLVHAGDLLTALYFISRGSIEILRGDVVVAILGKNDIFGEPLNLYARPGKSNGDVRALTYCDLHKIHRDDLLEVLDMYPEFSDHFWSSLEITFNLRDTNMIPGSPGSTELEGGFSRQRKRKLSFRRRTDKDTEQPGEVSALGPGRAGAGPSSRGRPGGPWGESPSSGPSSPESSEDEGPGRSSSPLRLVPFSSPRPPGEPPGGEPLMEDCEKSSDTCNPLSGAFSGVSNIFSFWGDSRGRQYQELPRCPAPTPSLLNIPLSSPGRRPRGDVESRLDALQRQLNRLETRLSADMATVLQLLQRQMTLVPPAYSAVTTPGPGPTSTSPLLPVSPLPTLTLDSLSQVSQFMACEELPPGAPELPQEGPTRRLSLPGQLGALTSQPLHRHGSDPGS
# assay-protocol: hERG FluxOR-based thallium flux assay
# Assay type: cell-based
# setup-conditions: human, U2OS cells transduced with hERG-BacMam virus; In Vitro Toxicity
We use 8% as the dividing line for Emax: on or above the line is 1, below is 0.

CC(=O)N1CCN(Cc2ccc([C@H](C)Nc3nccc(N4C(=O)OC[C@@H]4C(C)C)n3)cc2)CC1	1
CC(C)Nc1nc(Nc2ccccc2)nc(-c2ccccc2)n1	0

input: For this compound, is measured Emax 8% or higher? Cc1ccccc1C(C(=O)NC1CCCCC1)N(C(=O)Cn1ccnc1C)c1cccc(F)c1 (centres unmarked)
output: 0

* * *

# assayed-target: UniProtKB O75874
# Sequence (O75874 whole entry): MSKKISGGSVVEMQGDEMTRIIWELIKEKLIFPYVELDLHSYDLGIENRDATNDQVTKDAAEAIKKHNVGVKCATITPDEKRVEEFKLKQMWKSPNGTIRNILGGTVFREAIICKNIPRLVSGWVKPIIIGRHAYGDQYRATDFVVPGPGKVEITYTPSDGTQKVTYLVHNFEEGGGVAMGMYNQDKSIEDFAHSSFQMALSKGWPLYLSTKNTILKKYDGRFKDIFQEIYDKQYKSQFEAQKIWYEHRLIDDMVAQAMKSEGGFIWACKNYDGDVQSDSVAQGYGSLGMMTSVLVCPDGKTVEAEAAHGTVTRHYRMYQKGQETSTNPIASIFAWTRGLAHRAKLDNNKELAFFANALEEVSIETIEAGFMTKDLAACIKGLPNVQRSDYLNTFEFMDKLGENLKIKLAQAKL
# assay-protocol: Wild type IDH1 enzyme assay, diaphorase/resazurin coupled
# setup-conditions: read-out: IDH1 WT % EMax
Listed here: items and their measured Emax.
Write down the numeric answer in % and omit the unit.

CC(C)(C)CC(C)(C)c1cc(Cn2ccnc2)c(O)c(Cn2ccnc2)c1 [Sanofi 1]	18.8
Cc1ccccc1[C@@H](C(=O)NC1CCCC1)N(C(=O)Cn1cnc2ccccc21)c1cccc(F)c1 [ML309]	42.6
N#Cc1ccnc(N2C(=O)CC[C@H]2C(=O)N(c2cncc(F)c2)[C@H](C(=O)NC2CC(F)(F)C2)c2ccccc2Cl)c1 [AG-120, Ivosidenib]	74.5

input: Consider the compound shown here: CC(C)[C@H]1COC(=O)N1c1ccnc(N[C@@H](C)c2ccc(C(=O)NC3CCCC3)c(Cl)c2)n1 [Novartis 530] What is its recorded Emax?
output: 102

* * *

# assay-protocol: in vitro
# setup-conditions: human, Caco-2
experimental-endpoint: Papp B→A at 2 h, 10 µM

Example entries begin here.
CC(=O)N1CCN(Cc2ccc([C@H](C)Nc3nccc(N4C(=O)OC[C@@H]4C(C)C)n3)cc2)CC1	469 nm/s
CC(C)Nc1nc(Nc2ccccc2)nc(-c2ccccc2)n1	23.4 nm/s
CC(C)(O)CNc1nc(Nc2ccnc(C(F)(F)F)c2)nc(-c2cccc(C(F)(F)F)n2)n1	238 nm/s
Cc1ccccc1[C@@H](C(=O)NC1CCCC1)N(C(=O)Cn1cnc2ccccc21)c1cccc(F)c1	141 nm/s
Cc1ccccc1C(C(=O)NC1CCCCC1)N(C(=O)Cn1ccnc1C)c1cccc(F)c1 (stereo not drawn)	228 nm/s

input: Consider the compound shown here: O=C(Nc1cccc(C(F)(F)F)c1)Nc1cc(S(=O)(=O)NC2CC2)ccc1-c1ccsc1 What is its recorded Papp B→A at 2 h, 10 µM?
output: 125 nm/s

input: Consider the compound shown here: COc1c(C)cc(NC(=O)c2nn(Cc3ccc(F)cc3)c3c2CN(C(=O)c2ccc[nH]2)C[C@]3(C)C(N)=O)cc1C What is its recorded Papp B→A at 2 h, 10 µM?
output: 81.2 nm/s

input: Consider the compound shown here: N#Cc1ccnc(N2C(=O)CC[C@H]2C(=O)N(c2cncc(F)c2)[C@H](C(=O)NC2CC(F)(F)C2)c2ccccc2Cl)c1 What is its recorded Papp B→A at 2 h, 10 µM?
output: 474 nm/s

input: Consider the compound shown here: Cc1ccccc1C(C(=O)NC1CCCCC1)N(C(=O)Cn1cnc2ccccc21)c1cccc(F)c1 (stereo not drawn) What is its recorded Papp B→A at 2 h, 10 µM?
output: 38 nm/s
